Hey, just so you know, these numbers are from ChEMBL document CHEMBL5291721.

measuredParameter: AC50

Request: Lab note: Gamma-aminobutyric acid receptor subunit alpha-1 (Rattus norvegicus, UniProt P62813) assay, enter AC50 for NC(=O)NC(=O)Cc1ccccc1 [PHENACEMIDE] here
Response: > 10 µM

Request: Print Gamma-aminobutyric acid receptor subunit alpha-1 (Rattus norvegicus, UniProt P62813) AC50 for NS(=O)(=O)c1cc2c(cc1Cl)N=C(CSCc1ccccc1)NS2(=O)=O [BENZTHIAZIDE] .
Response: > 10 µM

Request: Recall the reported AC50 of Cc1ccccc1N1C(=O)c2cc(S(N)(=O)=O)c(Cl)cc2NC1C (centres undefined) [METOLAZONE] when tested on Gamma-aminobutyric acid receptor subunit alpha-1 (Rattus norvegicus, UniProt P62813). Further: assay procedure not described here.
Sequence (P62813 whole entry): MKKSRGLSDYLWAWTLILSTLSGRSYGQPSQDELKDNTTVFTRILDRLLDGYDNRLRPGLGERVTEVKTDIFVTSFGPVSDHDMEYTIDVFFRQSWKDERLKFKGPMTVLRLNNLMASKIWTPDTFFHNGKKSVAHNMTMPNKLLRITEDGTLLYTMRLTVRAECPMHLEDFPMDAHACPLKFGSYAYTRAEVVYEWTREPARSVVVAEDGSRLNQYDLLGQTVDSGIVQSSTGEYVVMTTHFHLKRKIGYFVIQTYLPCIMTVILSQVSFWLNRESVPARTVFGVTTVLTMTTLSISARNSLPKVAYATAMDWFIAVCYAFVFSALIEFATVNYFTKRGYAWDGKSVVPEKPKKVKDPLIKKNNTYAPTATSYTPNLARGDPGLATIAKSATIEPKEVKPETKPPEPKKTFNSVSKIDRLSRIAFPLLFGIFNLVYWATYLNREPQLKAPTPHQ
Response: > 10 µM

Request: Give AC50 for CCC(=O)O[C@](Cc1ccccc1)(c1ccccc1)[C@H](C)CN(C)C [PROPOXYPHENE] tested on Gamma-aminobutyric acid receptor subunit alpha-1 (Rattus norvegicus, UniProt P62813). Further: assay procedure not described here.
Response: > 10 µM

Request: Identify measured AC50 obtained with Gamma-aminobutyric acid receptor subunit alpha-1 (Rattus norvegicus, UniProt P62813) for CC[C@@H](CO)NC(=O)[C@@H]1C=C2c3cccc4c3c(cn4C)C[C@H]2N(C)C1 [METHYSERGIDE] .
Response: > 10 µM

Request: For Gamma-aminobutyric acid receptor subunit alpha-1 (Rattus norvegicus, UniProt P62813), give the measured AC50 of the entry CCCNC(=O)NS(=O)(=O)c1ccc(Cl)cc1 [CHLORPROPAMIDE]
Response: > 10 µM

Request: Consider the molecule O=S1(=O)CCN(CN2CCS(=O)(=O)NC2)CN1 [TAUROLIDINE] tested on Gamma-aminobutyric acid receptor subunit alpha-1 (Rattus norvegicus, UniProt P62813); state its AC50. Further: assay procedure not described here.
Response: > 30 µM

Request: Report AC50 on Gamma-aminobutyric acid receptor subunit alpha-1 (Rattus norvegicus, UniProt P62813) for this entry: Cc1ccccc1-n1c(CF)nc2ccc(N)cc2c1=O [AFLOQUALONE]
Response: > 10 µM

Request: Lab note: record AC50 of CCOC(=O)[C@@H](N)Cc1ccc(-c2cc(O[C@H](c3ccc(Cl)cc3-n3ccc(C)n3)C(F)(F)F)nc(N)n2)cc1 [TELOTRISTAT ETHYL] tested on Gamma-aminobutyric acid receptor subunit alpha-1 (Rattus norvegicus, UniProt P62813). Further: assay procedure not described here.
Response: > 30 µM

Request: Lab note: record AC50 of CCOC(=O)c1ccc(C#Cc2ccc3c(c2)C(C)(C)CCS3)nc1 [TAZAROTENE] tested on Gamma-aminobutyric acid receptor subunit alpha-1 (Rattus norvegicus, UniProt P62813). Further: assay procedure not described here.
Response: > 10 µM

Request: Lab note: Gamma-aminobutyric acid receptor subunit alpha-1 (Rattus norvegicus, UniProt P62813) assay, enter AC50 for CC(O)(CS(=O)(=O)c1ccc(F)cc1)C(=O)Nc1ccc(C#N)c(C(F)(F)F)c1 (centres undefined) [BICALUTAMIDE] here
Response: > 10 µM

Request: Give AC50 for this entry on Gamma-aminobutyric acid receptor subunit alpha-1 (Rattus norvegicus, UniProt P62813): O=c1[nH]c2ccccc2n1CCCN1CCN(C(c2ccccc2)c2ccccc2)CC1 [OXATOMIDE]
Response: > 30 µM

Request: Write down measured AC50 (Gamma-aminobutyric acid receptor subunit alpha-1 (Rattus norvegicus, UniProt P62813)) for this molecule. CC(C)C[C@H](NC(=O)[C@@H](O)[C@H](N)Cc1ccccc1)C(=O)O [UBENIMEX]
Response: > 30 µM

Request: Please report the measured AC50 for CC(C)NC(=N)NC(=N)Nc1ccc(Cl)c(Cl)c1 [CHLORPROGUANIL] tested on Gamma-aminobutyric acid receptor subunit alpha-1 (Rattus norvegicus, UniProt P62813). Further: assay procedure not described here.
Response: > 30 µM

Request: // output AC50; input CCOC(=O)C(C)(C)Oc1ccc(Cl)cc1 [CLOFIBRATE] ; system Gamma-aminobutyric acid receptor subunit alpha-1 (Rattus norvegicus, UniProt P62813); further: assay procedure not described here
Response: > 10 µM

Request: Report AC50 from Gamma-aminobutyric acid receptor subunit alpha-1 (Rattus norvegicus, UniProt P62813) testing of COC(=O)[C@H]1[C@H]2C[C@@H]3c4[nH]c5cc(OC)ccc5c4CCN3C[C@H]2C[C@@H](OC(=O)c2cc(OC)c(OC)c(OC)c2)[C@@H]1OC [RESERPINE]
Response: > 10 µM

Request: Quote AC50 with test system Gamma-aminobutyric acid receptor subunit alpha-1 (Rattus norvegicus, UniProt P62813) for Cc1cc(=O)n(-c2ccccc2)n1C [ANTIPYRINE]; further: assay procedure not described here
Response: > 10 µM

Request: GET AC50 where system = Gamma-aminobutyric acid receptor subunit alpha-1 (Rattus norvegicus, UniProt P62813) and item = O=C(O)Cc1ccccc1Nc1c(Cl)cccc1Cl [DICLOFENAC]; further: assay procedure not described here
Response: > 10 µM

Request: Print Gamma-aminobutyric acid receptor subunit alpha-1 (Rattus norvegicus, UniProt P62813) AC50 for CC(=O)Nc1ccc(CC(=O)O)cc1 [ACTARIT] .
Response: > 30 µM
